biological target: cAMP-dependent protein kinase catalytic subunit alpha (Homo sapiens, UniProt P17612); test: Inhibition of PKAalpha by TR-FRET LanthaScreen assay

Chemical Smiles	IC50
COc1cc(O)c2c(c1)CCC[C@H](O)CC(=O)/C=C\C[C@H](C)OC2=O	> 10 µM
COc1cc(O)c2c(c1)CCC[C@H](O)[C@H](O)C(=O)/C=C\C[C@H](C)OC2=O	> 10 µM

* * *

// IC50 collected for Tyrosine-protein kinase Lck (Homo sapiens, UniProt P06239)

Chemical Smiles	Units Of Measure	Rel	IC50
COc1cc(O)c2c(c1)CCCCCC(=O)/C=C\C[C@H](C)OC2=O	µM	>	10
COc1cc(O)c2c(c1)CCC[C@H](O)CC(=O)/C=C/C[C@H](C)OC2=O	µM	>	10
COc1cc(O)c2c(c1)CCC[C@H](O)[C@H](O)C(=O)/C=C\C[C@H](C)OC2=O	µM	=	6.2
COc1cc(O)c2c(c1)CCC[C@H](O)CC(=O)/C=C\C[C@H](C)OC2=O	µM	=	4.7

* * *

biological target: UniProt P35968; assay: Inhibition of VEGFR2 by TR-FRET based LanthaScreen assay
Sequence (P35968 whole entry): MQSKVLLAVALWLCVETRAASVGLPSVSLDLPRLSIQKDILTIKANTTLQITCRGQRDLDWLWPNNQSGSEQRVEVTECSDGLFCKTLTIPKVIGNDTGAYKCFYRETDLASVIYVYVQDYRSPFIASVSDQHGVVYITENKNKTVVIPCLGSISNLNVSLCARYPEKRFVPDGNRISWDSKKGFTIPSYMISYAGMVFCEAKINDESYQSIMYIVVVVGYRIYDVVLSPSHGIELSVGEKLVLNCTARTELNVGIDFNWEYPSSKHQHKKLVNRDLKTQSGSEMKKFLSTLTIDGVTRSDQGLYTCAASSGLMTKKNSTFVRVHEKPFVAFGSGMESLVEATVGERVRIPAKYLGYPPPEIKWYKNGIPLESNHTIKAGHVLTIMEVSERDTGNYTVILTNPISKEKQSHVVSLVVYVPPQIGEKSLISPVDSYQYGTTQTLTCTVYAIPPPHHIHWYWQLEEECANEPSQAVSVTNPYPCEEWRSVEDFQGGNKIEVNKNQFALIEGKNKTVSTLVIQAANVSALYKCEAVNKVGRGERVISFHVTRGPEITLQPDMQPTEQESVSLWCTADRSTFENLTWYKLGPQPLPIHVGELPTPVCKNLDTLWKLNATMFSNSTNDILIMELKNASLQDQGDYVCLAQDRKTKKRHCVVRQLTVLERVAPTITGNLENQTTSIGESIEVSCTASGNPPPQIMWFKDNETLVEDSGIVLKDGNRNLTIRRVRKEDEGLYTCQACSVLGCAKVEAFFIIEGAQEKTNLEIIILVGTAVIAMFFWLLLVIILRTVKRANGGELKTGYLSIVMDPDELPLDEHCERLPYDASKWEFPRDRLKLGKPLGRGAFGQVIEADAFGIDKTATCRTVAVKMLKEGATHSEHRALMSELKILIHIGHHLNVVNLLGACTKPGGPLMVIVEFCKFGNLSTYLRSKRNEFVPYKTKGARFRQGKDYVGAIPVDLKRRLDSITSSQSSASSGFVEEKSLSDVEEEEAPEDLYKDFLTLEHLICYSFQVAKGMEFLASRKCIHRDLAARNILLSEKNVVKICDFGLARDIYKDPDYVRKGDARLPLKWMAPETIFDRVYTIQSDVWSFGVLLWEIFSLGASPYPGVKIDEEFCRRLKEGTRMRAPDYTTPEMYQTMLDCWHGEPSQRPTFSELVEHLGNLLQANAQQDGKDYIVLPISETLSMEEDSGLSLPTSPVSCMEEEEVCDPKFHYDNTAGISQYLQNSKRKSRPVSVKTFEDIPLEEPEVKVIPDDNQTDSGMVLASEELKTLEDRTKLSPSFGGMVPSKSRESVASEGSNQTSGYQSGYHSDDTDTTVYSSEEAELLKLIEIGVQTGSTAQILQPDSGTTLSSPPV
Quick reference for IC50 among some molecules

Chemical Smiles	IC50, nM
COc1cc(O)c2c(c1)CCCCCC(=O)/C=C\C[C@H](C)OC2=O	170
COc1cc(O)c2c(c1)CCC[C@H](O)CC(=O)/C=C/C[C@H](C)OC2=O	190
COc1cc(O)c2c(c1)CCC[C@H](O)[C@H](O)C(=O)/C=C\C[C@H](C)OC2=O	2
COc1cc(O)c2c(c1)CCC[C@H](O)CC(=O)/C=C\C[C@H](C)OC2=O	5.8

* * *

We begin with a simple list: items and their reported IC50.
molecular target: Tyrosine-protein kinase JAK1 (Homo sapiens)
Sequence (P23458 whole entry): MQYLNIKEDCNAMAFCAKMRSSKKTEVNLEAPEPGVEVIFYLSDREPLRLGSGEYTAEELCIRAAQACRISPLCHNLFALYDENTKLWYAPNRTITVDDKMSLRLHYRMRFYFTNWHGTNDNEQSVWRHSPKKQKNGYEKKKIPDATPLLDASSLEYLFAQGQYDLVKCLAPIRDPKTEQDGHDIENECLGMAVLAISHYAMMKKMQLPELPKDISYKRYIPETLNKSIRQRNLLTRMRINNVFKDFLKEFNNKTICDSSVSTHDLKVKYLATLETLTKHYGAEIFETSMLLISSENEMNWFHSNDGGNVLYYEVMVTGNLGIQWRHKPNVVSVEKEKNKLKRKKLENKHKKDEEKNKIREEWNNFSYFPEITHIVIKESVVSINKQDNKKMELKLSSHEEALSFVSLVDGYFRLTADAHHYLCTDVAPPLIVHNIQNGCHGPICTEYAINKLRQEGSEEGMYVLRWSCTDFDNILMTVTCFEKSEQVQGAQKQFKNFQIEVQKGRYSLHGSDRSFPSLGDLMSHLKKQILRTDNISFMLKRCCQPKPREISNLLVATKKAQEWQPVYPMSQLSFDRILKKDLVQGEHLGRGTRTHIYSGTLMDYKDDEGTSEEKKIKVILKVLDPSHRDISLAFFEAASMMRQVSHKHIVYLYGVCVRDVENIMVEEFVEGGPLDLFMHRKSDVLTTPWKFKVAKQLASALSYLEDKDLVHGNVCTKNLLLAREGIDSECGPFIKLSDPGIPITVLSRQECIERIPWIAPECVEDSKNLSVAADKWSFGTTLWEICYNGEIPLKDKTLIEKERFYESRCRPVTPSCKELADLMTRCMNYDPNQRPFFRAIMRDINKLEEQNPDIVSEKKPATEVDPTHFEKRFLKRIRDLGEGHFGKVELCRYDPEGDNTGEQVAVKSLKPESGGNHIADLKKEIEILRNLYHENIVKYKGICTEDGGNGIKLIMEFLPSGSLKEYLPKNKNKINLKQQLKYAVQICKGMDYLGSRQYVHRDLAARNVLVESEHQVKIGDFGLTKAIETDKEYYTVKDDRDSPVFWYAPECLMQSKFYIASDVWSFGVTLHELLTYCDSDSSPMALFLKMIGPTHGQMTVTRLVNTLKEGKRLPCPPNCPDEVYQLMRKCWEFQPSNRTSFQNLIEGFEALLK
Parameter Measured: IC50

Chemical Smiles	Parameter Measured	Obs Value
COc1cc(O)c2c(c1)CCC[C@H](O)[C@H](O)C(=O)/C=C\C[C@H](C)OC2=O	IC50	> 10 µM
COc1cc(O)c2c(c1)CCC[C@H](O)CC(=O)/C=C\C[C@H](C)OC2=O	IC50	> 10 µM

* * *

We begin with a simple list: items and their reported pIC50.
biological target: MAP kinase-interacting serine/threonine-protein kinase 2 (Homo sapiens)
pIC50: −log10 of the molar value.

Chemical Smiles	Rel	pIC50
COc1cc(O)c2c(c1)CCC[C@H](O)CC(=O)/C=C\C[C@H](C)OC2=O	=	6.82
COc1cc(O)c2c(c1)CCCCCC(=O)/C=C\C[C@H](C)OC2=O	<	5.00

* * *

test: Inhibition of CDK4D1 by Caliper mobility shift assay
pIC50: −log10 of the molar value.
Parameter Measured: pIC50

Chemical Smiles	Obs Value
COc1cc(O)c2c(c1)CCC[C@H](O)[C@H](O)C(=O)/C=C\C[C@H](C)OC2=O	< 5.00
COc1cc(O)c2c(c1)CCC[C@H](O)CC(=O)/C=C\C[C@H](C)OC2=O	< 5.00

* * *

# pIC50 values compiled below
biological target: UniProtKB P07949
Sequence (P07949 whole entry): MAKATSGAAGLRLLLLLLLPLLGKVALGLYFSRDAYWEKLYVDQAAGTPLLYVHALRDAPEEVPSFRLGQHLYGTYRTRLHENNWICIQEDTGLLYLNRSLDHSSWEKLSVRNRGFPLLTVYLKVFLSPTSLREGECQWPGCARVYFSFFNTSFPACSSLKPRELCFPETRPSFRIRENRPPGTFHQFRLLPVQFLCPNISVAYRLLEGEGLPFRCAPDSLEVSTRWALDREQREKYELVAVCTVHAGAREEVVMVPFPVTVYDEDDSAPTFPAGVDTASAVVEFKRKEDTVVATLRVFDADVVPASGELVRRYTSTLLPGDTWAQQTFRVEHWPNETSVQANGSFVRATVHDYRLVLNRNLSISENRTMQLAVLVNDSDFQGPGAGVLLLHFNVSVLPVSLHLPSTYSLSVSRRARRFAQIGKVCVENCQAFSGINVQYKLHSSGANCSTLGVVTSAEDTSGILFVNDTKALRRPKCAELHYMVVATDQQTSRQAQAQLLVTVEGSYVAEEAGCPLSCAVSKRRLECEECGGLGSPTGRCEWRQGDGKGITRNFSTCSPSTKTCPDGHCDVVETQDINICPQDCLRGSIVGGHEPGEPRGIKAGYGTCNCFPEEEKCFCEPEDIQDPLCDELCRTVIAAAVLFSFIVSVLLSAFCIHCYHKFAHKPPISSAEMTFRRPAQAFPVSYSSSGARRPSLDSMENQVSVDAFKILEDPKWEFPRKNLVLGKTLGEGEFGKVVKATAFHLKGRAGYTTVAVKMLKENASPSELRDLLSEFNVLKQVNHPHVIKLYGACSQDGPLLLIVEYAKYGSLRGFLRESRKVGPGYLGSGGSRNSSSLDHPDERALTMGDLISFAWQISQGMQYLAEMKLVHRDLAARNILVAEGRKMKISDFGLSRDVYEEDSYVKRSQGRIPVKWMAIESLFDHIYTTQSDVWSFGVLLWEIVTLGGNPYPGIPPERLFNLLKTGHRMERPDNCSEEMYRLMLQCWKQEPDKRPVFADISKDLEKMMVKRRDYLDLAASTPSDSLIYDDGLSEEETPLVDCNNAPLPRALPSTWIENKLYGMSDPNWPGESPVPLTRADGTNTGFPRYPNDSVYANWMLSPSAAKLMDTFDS
pIC50: −log10 of the molar value.
Parameter Measured: pIC50

Chemical Smiles	Obs Value
COc1cc(O)c2c(c1)CCC[C@H](O)CC(=O)/C=C/C[C@H](C)OC2=O	< 5.00
COc1cc(O)c2c(c1)CCCCCC(=O)/C=C\C[C@H](C)OC2=O	< 5.00
COc1cc(O)c2c(c1)CCC[C@H](O)CC(=O)/C=C\C[C@H](C)OC2=O	5.14
COc1cc(O)c2c(c1)CCC[C@H](O)[C@H](O)C(=O)/C=C\C[C@H](C)OC2=O	< 5.00

* * *

Documented IC50 across a set of compounds
biological target: Platelet-derived growth factor receptor alpha (Homo sapiens, UniProt P16234, V561D); assay: Inhibition of PDGFRalpha V561D mutant by TR-FRET based LanthaScreen assay
Sequence (P16234 24-1089 V561D limits assumed): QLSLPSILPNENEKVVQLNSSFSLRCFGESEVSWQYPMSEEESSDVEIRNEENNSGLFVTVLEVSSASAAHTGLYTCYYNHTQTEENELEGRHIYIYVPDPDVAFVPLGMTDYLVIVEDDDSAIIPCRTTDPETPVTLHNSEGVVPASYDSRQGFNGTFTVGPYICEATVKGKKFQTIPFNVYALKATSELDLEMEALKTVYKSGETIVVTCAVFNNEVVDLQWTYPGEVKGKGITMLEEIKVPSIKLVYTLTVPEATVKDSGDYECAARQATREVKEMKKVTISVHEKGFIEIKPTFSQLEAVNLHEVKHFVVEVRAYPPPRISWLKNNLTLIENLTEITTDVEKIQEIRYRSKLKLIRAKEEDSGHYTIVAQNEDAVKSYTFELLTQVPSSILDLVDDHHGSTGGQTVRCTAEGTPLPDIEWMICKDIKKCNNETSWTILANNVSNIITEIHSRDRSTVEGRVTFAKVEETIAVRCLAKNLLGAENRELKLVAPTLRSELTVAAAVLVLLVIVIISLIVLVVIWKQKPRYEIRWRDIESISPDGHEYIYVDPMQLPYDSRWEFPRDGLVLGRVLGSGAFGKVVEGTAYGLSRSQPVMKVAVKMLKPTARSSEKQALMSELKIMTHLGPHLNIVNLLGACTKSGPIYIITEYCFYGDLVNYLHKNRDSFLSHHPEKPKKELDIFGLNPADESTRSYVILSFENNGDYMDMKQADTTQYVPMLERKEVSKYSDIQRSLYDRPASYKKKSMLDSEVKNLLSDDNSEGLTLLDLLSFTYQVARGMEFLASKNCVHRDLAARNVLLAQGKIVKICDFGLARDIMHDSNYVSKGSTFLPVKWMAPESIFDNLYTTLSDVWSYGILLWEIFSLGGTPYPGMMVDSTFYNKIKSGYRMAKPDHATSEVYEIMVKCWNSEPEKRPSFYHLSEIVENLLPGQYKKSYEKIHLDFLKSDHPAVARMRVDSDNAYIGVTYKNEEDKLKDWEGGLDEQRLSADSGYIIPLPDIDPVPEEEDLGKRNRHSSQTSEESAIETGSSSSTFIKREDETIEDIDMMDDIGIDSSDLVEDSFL

Chemical Smiles	Measurement Target	IC50 / nM
COc1cc(O)c2c(c1)CCC[C@H](O)[C@H](O)C(=O)/C=C\C[C@H](C)OC2=O	Platelet-derived growth factor receptor alpha (Homo sapiens, UniProt P16234, V561D)	2.38
COc1cc(O)c2c(c1)CCCCCC(=O)/C=C\C[C@H](C)OC2=O	Platelet-derived growth factor receptor alpha (Homo sapiens, UniProt P16234, V561D)	95
COc1cc(O)c2c(c1)CCC[C@H](O)CC(=O)/C=C/C[C@H](C)OC2=O	Platelet-derived growth factor receptor alpha (Homo sapiens, UniProt P16234, V561D)	180
COc1cc(O)c2c(c1)CCC[C@H](O)CC(=O)/C=C\C[C@H](C)OC2=O	Platelet-derived growth factor receptor alpha (Homo sapiens, UniProt P16234, V561D)	7.23

* * *

Biological target: UniProtKB P52333
Sequence (P52333 whole entry): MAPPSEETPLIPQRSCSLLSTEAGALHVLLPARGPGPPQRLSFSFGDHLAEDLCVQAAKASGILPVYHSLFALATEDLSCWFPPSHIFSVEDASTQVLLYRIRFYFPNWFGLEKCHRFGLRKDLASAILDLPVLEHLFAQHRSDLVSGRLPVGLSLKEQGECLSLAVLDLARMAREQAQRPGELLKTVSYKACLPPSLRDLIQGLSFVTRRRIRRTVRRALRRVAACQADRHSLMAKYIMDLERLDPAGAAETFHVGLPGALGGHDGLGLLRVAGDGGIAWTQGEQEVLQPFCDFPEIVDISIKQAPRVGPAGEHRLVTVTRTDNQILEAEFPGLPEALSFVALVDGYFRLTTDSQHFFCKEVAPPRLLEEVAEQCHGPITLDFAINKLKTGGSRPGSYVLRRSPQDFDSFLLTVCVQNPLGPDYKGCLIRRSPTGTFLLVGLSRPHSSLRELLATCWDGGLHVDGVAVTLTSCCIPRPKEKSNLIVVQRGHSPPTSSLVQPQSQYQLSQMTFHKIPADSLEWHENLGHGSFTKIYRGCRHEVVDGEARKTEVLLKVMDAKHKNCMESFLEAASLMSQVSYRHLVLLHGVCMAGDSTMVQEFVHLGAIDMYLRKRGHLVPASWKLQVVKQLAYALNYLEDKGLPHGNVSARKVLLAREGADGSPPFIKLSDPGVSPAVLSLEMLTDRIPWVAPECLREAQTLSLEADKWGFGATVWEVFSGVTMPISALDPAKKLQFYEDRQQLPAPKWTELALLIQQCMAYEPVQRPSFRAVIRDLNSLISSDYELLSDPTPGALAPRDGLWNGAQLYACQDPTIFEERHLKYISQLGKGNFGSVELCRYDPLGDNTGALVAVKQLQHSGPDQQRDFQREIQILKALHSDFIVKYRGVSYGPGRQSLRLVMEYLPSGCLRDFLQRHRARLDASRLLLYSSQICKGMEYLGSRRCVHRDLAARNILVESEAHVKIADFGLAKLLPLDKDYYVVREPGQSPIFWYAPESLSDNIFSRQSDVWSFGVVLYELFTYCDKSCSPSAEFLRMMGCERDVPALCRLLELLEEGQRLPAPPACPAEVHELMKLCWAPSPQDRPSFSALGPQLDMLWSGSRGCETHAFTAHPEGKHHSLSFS

Chemical Smiles	IC50
COc1cc(O)c2c(c1)CCC[C@H](O)CC(=O)/C=C\C[C@H](C)OC2=O	> 10 µM
COc1cc(O)c2c(c1)CCC[C@H](O)[C@H](O)C(=O)/C=C\C[C@H](C)OC2=O	> 10 µM

* * *

target: UniProt Q06187; test: Inhibition of BTK by TR-FRET based LanthaScreen assay

Chemical Smiles	IC50
COc1cc(O)c2c(c1)CCC[C@H](O)[C@H](O)C(=O)/C=C\C[C@H](C)OC2=O	> 10 µM

* * *

Entries and their IC50
Molecular target: MAP kinase-activated protein kinase 5 (Homo sapiens)
Sequence (Q8IW41 whole entry): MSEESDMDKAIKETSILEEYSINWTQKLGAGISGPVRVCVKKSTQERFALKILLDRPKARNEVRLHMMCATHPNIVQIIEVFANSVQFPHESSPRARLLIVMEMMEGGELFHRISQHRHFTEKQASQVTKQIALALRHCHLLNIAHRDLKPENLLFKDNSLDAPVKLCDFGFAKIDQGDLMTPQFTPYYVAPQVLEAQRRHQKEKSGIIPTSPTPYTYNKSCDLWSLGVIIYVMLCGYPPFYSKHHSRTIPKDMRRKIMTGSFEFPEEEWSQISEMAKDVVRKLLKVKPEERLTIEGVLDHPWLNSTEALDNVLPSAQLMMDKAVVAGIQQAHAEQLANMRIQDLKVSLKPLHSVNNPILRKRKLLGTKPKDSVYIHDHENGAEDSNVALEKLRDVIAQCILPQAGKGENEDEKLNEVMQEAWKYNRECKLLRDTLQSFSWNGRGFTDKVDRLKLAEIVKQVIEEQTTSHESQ
Assay: Inhibition of MK5 by TR-FRET based LanthaScreen assay

Chemical Smiles	Measurement Target	Rel	IC50 [nM]
COc1cc(O)c2c(c1)CCC[C@H](O)[C@H](O)C(=O)/C=C\C[C@H](C)OC2=O	MAP kinase-activated protein kinase 5 (Homo sapiens)	=	640
COc1cc(O)c2c(c1)CCCCCC(=O)/C=C\C[C@H](C)OC2=O	MAP kinase-activated protein kinase 5 (Homo sapiens)	>	10000
